B1: Tudor domain-containing protein 3, residues 554 to 611; numbered along this chain, Q9H7E2 (parent)
chain: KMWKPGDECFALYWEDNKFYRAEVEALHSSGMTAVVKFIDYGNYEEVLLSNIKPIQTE

# Variants of: B1
# assay.procedure: abundance fitness (aPCA) (normalised: wild type 0, dead -1); higher = more abundant; growth selection in yeast, the domain comes from the species named
# experimental.context: Homo sapiens
experimental.endpoint: abundance fitness

>>> print(df.to_string())
    mutation_key  test_value
 0          Q56D      -0.061
 1          N51K      -0.418
 2          Y41N       0.035
 3          I52L       0.032
 4          A22W       -0.95
 5          M32Q       0.046
 6          F10Y       0.026
 7          L27G      -0.974
 8          R21S      -0.622
 9          L49M      -0.032
10          P54K      -0.138
11           C9I      -0.975
12          V47M      -0.821
13           K4H      -0.335
14          E45R      -0.107
15          F19T      -0.747
16          A26S       0.106
17          I52G      -0.895
18           E8F      -0.118
19          I55Y      -0.132
20          N51H       0.055
21          I52S      -0.853
22          Y13Q      -0.292
23          Y44T       0.039
24           K1H      -0.003
25           G6V      -0.928
26           G6R      -0.431
27          P54I        -0.5
28          F10I      -0.076
29          L12P      -0.394
30          Y13I      -0.975
31          L27M      -0.181
32          R21Q       -0.13
33          Y41V      -0.025
34           E8Q      -0.055
35          N43M      -0.108
36          T33E      -0.377
37          F10D      -0.267
38          E45F      -0.768
39          Y20K       0.072
40          Y20L      -0.171
41          L12R      -0.124
42          F38V      -0.787
43          I55R      -0.068
44          K18I      -0.273
45          F38H       -0.94
46          I39P      -0.278
47          Y41W      -0.029
48          L49R      -0.708
49           M2F      -0.194
50          S29H       -0.05
51          P54S      -0.158
52          V35I       -0.16
53           K4T      -0.059
54          F19S      -0.703
55          N51W      -0.271
56          S29N      -0.062
